// provenance: paper PMC5814754

- Target Under Test: full-length kinase/Nluc fusion proteins (Homo sapiens)
- Protocol Summary: Apparent affinity (EC50) of energy transfer probes by titration onto live HEK293 cells expressing kinase/Nluc fusions (Table S1)
- Experimental Setup: CSK, Nluc C; read-out: Probe EC50
pEC50: −log10 of the molar value.
Readout Type: pEC50

Query: Look up pEC50 for this molecule: Cc1nc(Nc2ncc(C(=O)Nc3c(C)cccc3Cl)s2)cc(N2CCN(CCOCCNC(=O)CCc3ccc4n3[B-](F)(F)[N+]3=C(c5ccc[nH]5)C=CC3=C4)CC2)n1 [Energy Transfer Probe 6]
Reply: < 6.00

----------
- Target Under Test: full-length kinase/Nluc fusion proteins (Homo sapiens)
- Protocol Summary: Apparent affinity (EC50) of energy transfer probes by titration onto live HEK293 cells expressing kinase/Nluc fusions (Table S1)
- Experimental Setup: NEK2, Nluc N; read-out: Probe EC50
Readout Type: EC50

Query: Look up EC50 for this compound: CNC(=O)c1ccccc1Nc1nc(Nc2ccc(N3CCN(C(=O)CCOCCOCCOCCOCCNC(=O)CCc4ccc5n4[B-](F)(F)[N+]4=C(c6ccc[nH]6)C=CC4=C5)CC3)cc2)ncc1Cl [Energy Transfer Probe 5]
Reply: > 1000 nM

----------
- Target Under Test: BTK (Homo sapiens)
- Sequence (Q06187 whole entry): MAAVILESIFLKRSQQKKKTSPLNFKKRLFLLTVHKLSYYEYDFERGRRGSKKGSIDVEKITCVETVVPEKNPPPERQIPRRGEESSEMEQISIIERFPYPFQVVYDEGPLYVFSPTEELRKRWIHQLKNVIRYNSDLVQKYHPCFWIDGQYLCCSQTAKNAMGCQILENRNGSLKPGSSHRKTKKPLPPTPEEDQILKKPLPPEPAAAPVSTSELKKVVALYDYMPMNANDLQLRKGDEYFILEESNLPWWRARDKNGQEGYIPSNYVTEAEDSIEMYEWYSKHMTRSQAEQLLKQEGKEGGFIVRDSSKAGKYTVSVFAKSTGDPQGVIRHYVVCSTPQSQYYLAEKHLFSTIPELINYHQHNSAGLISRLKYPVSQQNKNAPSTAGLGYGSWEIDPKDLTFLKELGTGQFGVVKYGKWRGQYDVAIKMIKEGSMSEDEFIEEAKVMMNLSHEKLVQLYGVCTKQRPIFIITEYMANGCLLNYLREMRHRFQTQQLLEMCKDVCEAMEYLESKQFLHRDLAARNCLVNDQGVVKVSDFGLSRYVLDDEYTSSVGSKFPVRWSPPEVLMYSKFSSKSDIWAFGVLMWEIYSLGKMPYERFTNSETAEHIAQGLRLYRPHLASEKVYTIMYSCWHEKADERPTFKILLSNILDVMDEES
- Protocol Summary: NanoBRET target engagement, BTK-NanoLuc, HEK293 cells
- Experimental Setup: BTK-NanoLuc Replicate 2; live HEK293; probe 5; read-out: EC50 (compound IC50, probe displacement)
Readout Type: IC50
Please format your answer as a value with the unit trailing.

Query: Look up IC50 for this molecule: COc1cc(Nc2c(C#N)cnc3cc(OCCCN4CCN(C)CC4)c(OC)cc23)c(Cl)cc1Cl
Reply: 65.3 nM

----------
- Target Under Test: full-length kinase/Nluc fusion proteins (Homo sapiens, UniProt Q15569)
- Sequence (Q15569 whole entry, the tested form may be a part): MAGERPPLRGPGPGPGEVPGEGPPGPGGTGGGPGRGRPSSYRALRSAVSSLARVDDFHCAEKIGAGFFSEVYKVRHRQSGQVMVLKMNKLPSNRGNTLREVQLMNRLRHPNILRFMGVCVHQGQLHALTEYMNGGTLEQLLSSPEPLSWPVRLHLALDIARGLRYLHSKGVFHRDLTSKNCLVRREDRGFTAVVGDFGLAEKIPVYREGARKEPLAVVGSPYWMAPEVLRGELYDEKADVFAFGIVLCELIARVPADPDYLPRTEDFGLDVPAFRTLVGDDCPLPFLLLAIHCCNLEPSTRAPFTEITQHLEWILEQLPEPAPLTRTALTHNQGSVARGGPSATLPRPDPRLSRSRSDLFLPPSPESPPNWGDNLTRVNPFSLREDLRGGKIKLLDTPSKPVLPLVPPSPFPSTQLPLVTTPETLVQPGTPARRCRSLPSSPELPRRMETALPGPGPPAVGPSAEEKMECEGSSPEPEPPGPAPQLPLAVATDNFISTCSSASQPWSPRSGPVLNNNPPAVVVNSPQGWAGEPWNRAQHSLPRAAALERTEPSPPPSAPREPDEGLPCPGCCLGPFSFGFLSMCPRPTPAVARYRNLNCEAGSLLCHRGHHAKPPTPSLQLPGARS
- Protocol Summary: Apparent affinity (EC50) of energy transfer probes by titration onto live HEK293 cells expressing kinase/Nluc fusions (Table S1)
- Experimental Setup: TESK1 (NP_006276), Nluc orientation N; read-out: Probe EC50
Readout Type: EC50

Query: Look up EC50 for this compound: Cc1nc(Nc2ncc(C(=O)Nc3c(C)cccc3Cl)s2)cc(N2CCN(CCOCCNC(=O)CCc3ccc4n3[B-](F)(F)[N+]3=C(c5ccc[nH]5)C=CC3=C4)CC2)n1 [Energy Transfer Probe 6]
Reply: > 1000 nM

----------
- Target Under Test: full-length kinase/Nluc fusion proteins (Homo sapiens)
- Protocol Summary: Apparent affinity (EC50) of energy transfer probes by titration onto live HEK293 cells expressing kinase/Nluc fusions (Table S1)
- Experimental Setup: FRK, Nluc C; read-out: Probe EC50
Readout Type: EC50 (nM)
Reply numerically in nM, unit not repeated.

Query: Look up EC50 for this compound: Cc1nc(Nc2ncc(C(=O)Nc3c(C)cccc3Cl)s2)cc(N2CCN(CCOCCNC(=O)CCc3ccc4n3[B-](F)(F)[N+]3=C(c5ccc[nH]5)C=CC3=C4)CC2)n1 [Energy Transfer Probe 6]
Reply: 400

----------
- Target Under Test: full-length kinase/Nluc fusion proteins (Homo sapiens, UniProt O15197)
- Sequence (O15197 32-1021): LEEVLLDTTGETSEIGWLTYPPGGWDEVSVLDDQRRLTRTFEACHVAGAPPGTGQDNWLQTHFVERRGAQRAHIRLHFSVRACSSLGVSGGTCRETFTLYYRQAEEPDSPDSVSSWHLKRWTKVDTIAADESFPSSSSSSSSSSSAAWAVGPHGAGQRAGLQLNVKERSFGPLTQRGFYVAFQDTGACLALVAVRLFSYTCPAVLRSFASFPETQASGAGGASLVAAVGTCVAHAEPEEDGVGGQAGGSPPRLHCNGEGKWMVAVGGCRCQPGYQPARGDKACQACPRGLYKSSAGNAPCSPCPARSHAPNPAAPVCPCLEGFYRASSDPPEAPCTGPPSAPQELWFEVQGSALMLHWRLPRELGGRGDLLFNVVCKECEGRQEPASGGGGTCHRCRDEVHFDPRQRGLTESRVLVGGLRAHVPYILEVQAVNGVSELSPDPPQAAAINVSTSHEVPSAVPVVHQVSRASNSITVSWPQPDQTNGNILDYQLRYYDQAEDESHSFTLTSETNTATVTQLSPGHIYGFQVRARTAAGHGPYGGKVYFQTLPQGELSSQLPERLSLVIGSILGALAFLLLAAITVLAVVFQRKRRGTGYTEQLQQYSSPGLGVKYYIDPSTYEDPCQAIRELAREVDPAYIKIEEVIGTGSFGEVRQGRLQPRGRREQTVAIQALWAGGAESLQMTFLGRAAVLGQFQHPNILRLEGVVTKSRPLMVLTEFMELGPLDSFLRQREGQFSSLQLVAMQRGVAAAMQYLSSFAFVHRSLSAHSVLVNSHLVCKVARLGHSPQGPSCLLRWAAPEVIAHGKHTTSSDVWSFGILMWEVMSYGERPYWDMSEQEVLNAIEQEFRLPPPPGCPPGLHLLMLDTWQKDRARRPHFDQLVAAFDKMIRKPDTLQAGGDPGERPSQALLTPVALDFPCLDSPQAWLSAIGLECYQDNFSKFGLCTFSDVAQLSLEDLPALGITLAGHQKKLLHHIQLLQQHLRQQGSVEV
- Protocol Summary: Apparent affinity (EC50) of energy transfer probes by titration onto live HEK293 cells expressing kinase/Nluc fusions (Table S1)
- Experimental Setup: EPHB6, Nluc C; read-out: Probe EC50
Readout Type: EC50

Query: Look up EC50 for this compound: Cc1nc(Nc2ncc(C(=O)Nc3c(C)cccc3Cl)s2)cc(N2CCN(CCOCCNC(=O)CCc3ccc4n3[B-](F)(F)[N+]3=C(c5ccc[nH]5)C=CC3=C4)CC2)n1 [Energy Transfer Probe 6]
Reply: > 1000 nM

----------
- Target Under Test: full-length kinase/Nluc fusion proteins (Homo sapiens, UniProt P07333)
- Sequence (P07333 20-972): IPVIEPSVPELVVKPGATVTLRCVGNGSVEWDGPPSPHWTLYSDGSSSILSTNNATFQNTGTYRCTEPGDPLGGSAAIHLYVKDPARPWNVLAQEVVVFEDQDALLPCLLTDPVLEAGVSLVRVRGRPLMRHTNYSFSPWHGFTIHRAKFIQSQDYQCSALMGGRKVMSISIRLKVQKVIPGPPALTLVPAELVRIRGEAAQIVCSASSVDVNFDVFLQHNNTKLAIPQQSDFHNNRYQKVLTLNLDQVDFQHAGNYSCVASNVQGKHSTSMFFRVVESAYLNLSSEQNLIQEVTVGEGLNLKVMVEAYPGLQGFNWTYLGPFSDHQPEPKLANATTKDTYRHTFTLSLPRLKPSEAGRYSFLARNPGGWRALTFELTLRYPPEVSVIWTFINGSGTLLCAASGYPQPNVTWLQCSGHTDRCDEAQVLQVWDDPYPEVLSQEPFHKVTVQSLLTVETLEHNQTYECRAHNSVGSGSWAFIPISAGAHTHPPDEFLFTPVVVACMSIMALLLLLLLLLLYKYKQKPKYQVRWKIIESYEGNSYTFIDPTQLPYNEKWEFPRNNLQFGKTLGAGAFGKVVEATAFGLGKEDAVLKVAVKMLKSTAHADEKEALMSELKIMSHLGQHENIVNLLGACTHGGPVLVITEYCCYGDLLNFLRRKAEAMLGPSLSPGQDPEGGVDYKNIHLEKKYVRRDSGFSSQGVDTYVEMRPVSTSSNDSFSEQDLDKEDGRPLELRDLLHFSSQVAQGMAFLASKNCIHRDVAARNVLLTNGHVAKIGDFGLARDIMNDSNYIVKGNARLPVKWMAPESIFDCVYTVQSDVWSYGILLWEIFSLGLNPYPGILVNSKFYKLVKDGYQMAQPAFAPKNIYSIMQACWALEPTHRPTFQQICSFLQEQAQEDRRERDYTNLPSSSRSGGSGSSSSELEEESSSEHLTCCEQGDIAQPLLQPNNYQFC
- Protocol Summary: Apparent affinity (EC50) of energy transfer probes by titration onto live HEK293 cells expressing kinase/Nluc fusions (Table S1)
- Experimental Setup: CSF1R, Nluc C; read-out: Probe EC50
Readout Type: pEC50
pEC50 here: minus log base 10 of the concentration, concentration in moles per litre.

Query: Look up pEC50 for this molecule: Cc1nc(Nc2ncc(C(=O)Nc3c(C)cccc3Cl)s2)cc(N2CCN(CCOCCNC(=O)CCc3ccc4n3[B-](F)(F)[N+]3=C(c5ccc[nH]5)C=CC3=C4)CC2)n1 [Energy Transfer Probe 6]
Reply: 6.70

----------
- Target Under Test: full-length kinase/Nluc fusion proteins (Homo sapiens)
- Sequence (Q9UF33 23-1036): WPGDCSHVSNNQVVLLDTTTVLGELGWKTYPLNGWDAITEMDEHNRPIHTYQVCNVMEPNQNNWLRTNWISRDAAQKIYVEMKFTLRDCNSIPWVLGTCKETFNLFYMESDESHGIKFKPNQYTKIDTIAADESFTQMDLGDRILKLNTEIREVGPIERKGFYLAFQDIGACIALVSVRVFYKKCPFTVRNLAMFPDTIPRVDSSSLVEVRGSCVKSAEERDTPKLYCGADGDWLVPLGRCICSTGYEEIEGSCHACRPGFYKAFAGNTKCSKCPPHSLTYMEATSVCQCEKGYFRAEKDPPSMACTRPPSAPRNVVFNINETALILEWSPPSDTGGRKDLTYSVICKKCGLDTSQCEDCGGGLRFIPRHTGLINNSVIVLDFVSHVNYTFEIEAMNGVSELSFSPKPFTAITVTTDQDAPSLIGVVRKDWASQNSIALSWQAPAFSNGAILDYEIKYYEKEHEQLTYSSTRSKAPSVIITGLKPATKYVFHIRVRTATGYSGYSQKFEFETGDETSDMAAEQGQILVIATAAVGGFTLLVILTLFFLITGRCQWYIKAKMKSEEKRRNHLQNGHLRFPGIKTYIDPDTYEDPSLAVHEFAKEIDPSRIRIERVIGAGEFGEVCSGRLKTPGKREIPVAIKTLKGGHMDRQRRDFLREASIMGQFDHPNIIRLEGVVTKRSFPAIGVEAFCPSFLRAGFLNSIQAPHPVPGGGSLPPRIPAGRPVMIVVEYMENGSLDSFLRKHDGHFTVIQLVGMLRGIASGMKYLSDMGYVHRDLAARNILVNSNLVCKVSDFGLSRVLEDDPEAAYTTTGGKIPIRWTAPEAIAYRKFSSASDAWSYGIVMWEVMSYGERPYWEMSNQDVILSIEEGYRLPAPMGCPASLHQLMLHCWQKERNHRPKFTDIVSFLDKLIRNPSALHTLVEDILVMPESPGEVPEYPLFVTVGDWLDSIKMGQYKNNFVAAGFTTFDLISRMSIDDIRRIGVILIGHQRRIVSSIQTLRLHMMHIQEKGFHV
- Protocol Summary: Apparent affinity (EC50) of energy transfer probes by titration onto live HEK293 cells expressing kinase/Nluc fusions (Table S1)
- Experimental Setup: EPHA6, Nluc C; read-out: Probe EC50
Readout Type: EC50

Query: Look up EC50 for this compound: CNC(=O)c1ccccc1Nc1nc(Nc2ccc(N3CCN(C(=O)CCOCCOCCOCCOCCNC(=O)CCc4ccc5n4[B-](F)(F)[N+]4=C(c6ccc[nH]6)C=CC4=C5)CC3)cc2)ncc1Cl [Energy Transfer Probe 5]
Reply: > 1 µM

----------
- Target Under Test: full-length kinase/Nluc fusion proteins (Homo sapiens, UniProt Q16816)
- Sequence (Q16816 whole entry, the tested form may be a part): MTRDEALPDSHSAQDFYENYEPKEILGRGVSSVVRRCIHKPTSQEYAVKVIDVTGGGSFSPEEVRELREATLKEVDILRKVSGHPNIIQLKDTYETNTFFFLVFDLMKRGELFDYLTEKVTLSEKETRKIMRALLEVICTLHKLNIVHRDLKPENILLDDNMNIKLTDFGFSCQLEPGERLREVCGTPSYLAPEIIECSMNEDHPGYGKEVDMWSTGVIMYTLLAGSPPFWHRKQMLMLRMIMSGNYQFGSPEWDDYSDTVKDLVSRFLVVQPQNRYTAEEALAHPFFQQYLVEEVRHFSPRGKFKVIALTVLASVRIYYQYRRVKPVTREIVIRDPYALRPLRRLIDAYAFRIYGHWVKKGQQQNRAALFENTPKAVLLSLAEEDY
- Protocol Summary: Apparent affinity (EC50) of energy transfer probes by titration onto live HEK293 cells expressing kinase/Nluc fusions (Table S1)
- Experimental Setup: PHKG1, Nluc N; read-out: Probe EC50
Readout Type: EC50
Please format your answer as a value with the unit trailing.

Query: Look up EC50 for this compound: CNC(=O)c1ccccc1Nc1nc(Nc2ccc(N3CCN(C(=O)CCOCCOCCOCCOCCNC(=O)CCc4ccc5n4[B-](F)(F)[N+]4=C(c6ccc[nH]6)C=CC4=C5)CC3)cc2)ncc1Cl [Energy Transfer Probe 5]
Reply: 400 nM

----------
- Target Under Test: full-length kinase/Nluc fusion proteins (Homo sapiens)
- Protocol Summary: Apparent affinity (EC50) of energy transfer probes by titration onto live HEK293 cells expressing kinase/Nluc fusions (Table S1)
- Experimental Setup: CLK2, Nluc C; read-out: Probe EC50
pEC50: −log10 of the molar value.
Readout Type: pEC50

Query: Lab request: please report pEC50 under test system full-length kinase/Nluc fusion proteins (Homo sapiens) for CNC(=O)c1ccccc1Nc1nc(Nc2ccc(N3CCN(C(=O)CCOCCOCCOCCOCCNC(=O)CCc4ccc5n4[B-](F)(F)[N+]4=C(c6ccc[nH]6)C=CC4=C5)CC3)cc2)ncc1Cl [Energy Transfer Probe 5]
Reply: < 6.00

----------
- Target Under Test: full-length kinase/Nluc fusion proteins (Homo sapiens, UniProt Q8NG66)
- Sequence (Q8NG66 1-645): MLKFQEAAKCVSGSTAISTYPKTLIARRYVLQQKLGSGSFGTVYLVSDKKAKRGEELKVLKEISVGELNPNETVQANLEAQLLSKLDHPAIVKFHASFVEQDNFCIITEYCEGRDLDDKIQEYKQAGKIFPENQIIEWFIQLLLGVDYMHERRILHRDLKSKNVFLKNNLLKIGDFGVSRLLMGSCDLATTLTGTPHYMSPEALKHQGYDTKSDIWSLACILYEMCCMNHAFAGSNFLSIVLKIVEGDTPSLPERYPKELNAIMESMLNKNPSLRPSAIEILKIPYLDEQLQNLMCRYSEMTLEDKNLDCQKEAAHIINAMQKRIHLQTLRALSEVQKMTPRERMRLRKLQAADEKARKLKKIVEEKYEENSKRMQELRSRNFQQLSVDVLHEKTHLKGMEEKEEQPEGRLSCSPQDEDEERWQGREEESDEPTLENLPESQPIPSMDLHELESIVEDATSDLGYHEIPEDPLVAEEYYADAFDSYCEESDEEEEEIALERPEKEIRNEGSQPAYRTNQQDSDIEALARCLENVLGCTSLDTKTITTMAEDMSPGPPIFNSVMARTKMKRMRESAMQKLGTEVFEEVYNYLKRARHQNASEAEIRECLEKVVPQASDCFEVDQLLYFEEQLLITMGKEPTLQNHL
- Protocol Summary: Apparent affinity (EC50) of energy transfer probes by titration onto live HEK293 cells expressing kinase/Nluc fusions (Table S1)
- Experimental Setup: NEK11, Nluc N; read-out: Probe EC50
Readout Type: EC50

Query: Look up EC50 for this compound: CNC(=O)c1ccccc1Nc1nc(Nc2ccc(N3CCN(C(=O)CCOCCOCCOCCOCCNC(=O)CCc4ccc5n4[B-](F)(F)[N+]4=C(c6ccc[nH]6)C=CC4=C5)CC3)cc2)ncc1Cl [Energy Transfer Probe 5]
Reply: > 1 µM
